Please respond with reported soluble fraction (log2) for every item in the list.
assay: soluble fraction after stress (log2 fold change); higher = more stays soluble; pooled small domains, quantitative proteomics; conditions: stress: 50 degC
Numbers only.

Here are 3 sequences. What values of soluble fraction (log2) were reported for them?
1. HMLNKRQAEILAEVSRLKEITPSELYKLQPNVSSRTLRRDMDVLVNKGLVSQDGSTKSTKYTYL
2. HMGAEIRDKVRAALAGLNPRAAEIFVMRYFDGYGNREIARLLNTSWSTIAVTLHRTRAKLQKELK
3. HMDHWQSVNSALELLEVSRRTLYDYISRKKLQTKKEGKYRYVWIDDDVIEEIKTSKSAYIEINN

[0.23, -0.101, -2.19]

Here are 8 sequences. What values of soluble fraction (log2) were reported for them?
1. HMRRELDSEHKRQEILFAAKRLLLAEGYDATSMSRLAKEAGVAPNTLYWYFKDKDELLIAILDELVAE
2. HMNLDPHVVGHRLRDLRTRRDLTLADVAAETDISVSTLSRLESGSRRATLELLVPLARTYRVTLDELVDA
3. HMNGKPDMTPIPAGSRNNDLHAWAYGRLLNHPDNAEAIRRDLFERGQTSGLKESELETIWQSIRRQLGGD
4. HMSQSLSGWAAKDLEVKSGADASYRTVGRLPKGSKVSGKIINGYLHIEFDGSMRYVPVSGISKTE
5. HMNTIFSVNGPVVKVKDTKDFSMMEMVYVGEKKLIGEVIGITESFTTIQVYEVTTGLKVGEPVYTTGAPM
6. HMKGSPFSQLPKEKKKRILQAAIEVFAQNDYKHASTDEIASRAGISKGLLFYYFHDKKTLYFYLGEYLKR
7. HMHESLAEVAARKLRALIVTGELAPGERVTEAGLTDLLEISRTPAREAIRILSSEGLLVVFPNRGAEVV
8. HMYEDGGAFLKAEREKYGLTLTDIYEHTHIPVRKLKAYEMHEEEMPDRTRALLELYFDQVAYEYES

[-1.72, -0.66, 0.249, -0.134, -0.38, -0.0373, -0.822, -0.443]

====

Please respond with reported soluble fraction (log2) for every item in the list.
assay: soluble fraction after stress (log2 fold change); higher = more stays soluble; pooled small domains, quantitative proteomics; conditions: stress: 50 degC
Numbers only.

# sequence, assayEndpoint, value
rows = [
    ("HMTGMEAAEFGKRIMKLRKQKGMTQSKLAEQINVSNKAISRWETGEGFPEITLLKPLAKALGTTVDELFGE", "soluble fraction (log2)", -0.204),
    ("HMQNYLEFIGNELKALTSIPSPSGYTKDVAAYLMKTLSDMGYEPQLSNKGNVFVTIGGEGNPLVLAAHVD", "soluble fraction (log2)", -0.0984),
    ("HMRSVEVAAEPGMVLEDRQTGFVGAVVAVEKSGGTHLVVLEDRHGLRRGFPLGPGFWLEGRPVVLAPPP", "soluble fraction (log2)", -0.227),
]

Now turn to the next sequence.
May I ask what soluble fraction (log2) has been recorded for HMQNGNLVDVYLNWRGKYYAIKMFFPNSKMPRRSDVQDQIVKVYPDARVQSFQVSKYVPGQPFL ? -1.62

====

test: soluble fraction after stress (log2 fold change); higher = more stays soluble; pooled small domains, quantitative proteomics; conditions: stress: 50 degC
Binned soluble fraction (log2); ranges: low bin = under -0.3, mid bin = from -0.3 up to 0.007, high bin = 0.007 and over

Completed entries (count: 5):
# sequence, labelValue
data = [
    ("HMLKEKETRALANFTNKFFGLDISEDLKPIALSELSKFKKTHKISNLEEFINSFQYDFQNEKILSLLDIFL", "low bin"),
    ("HMINKQPKDYEYFLEKWHFTQTEKHQLHNLILKLNIRYPNKDFLKITENLDNGKLVLKKLEERLSKT", "low bin"),
    ("HMTSRWEIGYNVAKKYYDEHGNLDVERAVYDNFELKKWLNTQRYKNSAGTLAEKYKIKLDELGMNWER", "high bin"),
    ("HMSNEVSYSDFVRSVESDEVNAVTLDGEQIRFVGNDGQTYSVIKPADAQITQLLIDNNVTVRAEQQ", "high bin"),
    ("HMNIGIVSLAAVPMRKEPSDRAEMVNQILFGETFDVLEEQEKWTLVQLHHDAYQGWIDRKQWDYASGIAD", "low bin"),
]

Band assignment needed for HMSNGEWQQGSDGRWWYKFSDGTYPKNKVETIGGKKYGFDSEGWMLANTTKEFSGTTYSFGADGVATS please. high bin

Then what about the sequence HMNSISDSELKALIKNNYLKFLKRIASDEEIEYHFNQIKNKTILLDELDSIFQNSQEYKDLVEHNNKIQN ? mid bin

Then what about the sequence HMVDITPDLIRTLLERFGEYGVTKEHIEARIQRHIESILPAQVVQLRKTYNSLKDGMSQPSDWFDI ? low bin

Then what about the sequence HMFPQQGEIRQGVIASITPDQILVNVGTKSEGIISGKELEAISKSERDSLNVDQKIAVYILDPEDSNG ? high bin

Then what about the sequence HMLRDTTLLHIDSIVRDGSTAMANITVRDEGTDLEFPLQLRMERGDMGWQVVRIVNYRAYLEAVQKA ? low bin

Then what about the sequence HMDVQPHIYLRKLDQFWPADLHSLILYTLDGRRLWSADSGNIPALPHRASSLVILEATWDNGQRTRRKQFL ? low bin

Then what about the sequence HMNDIDRFIEALIEQDTLPGTNSRINEDVISEMKMMTSVEDIKAYAIATVGLTGGQVNNALINSGL ? mid bin

Then what about the sequence HMEIFSIEPDSYLGSGEEIASYYREGVTVIVNMAKLSDAESLRMVDFMSGLKLALLGNIKRITKHVYLLTP ? mid bin

Then what about the sequence HMESAEQTGEELAARVNVLQTVSQALARELGREAAVEELADKMKMTVDEVKDIMKMAMDAMSM ? high bin

Then what about the sequence HMSVPVDEVLAALTQKLTDLRTQAMAAKDFSAVDALKAALTEAGVEVRMSKTGVELIAGPRVDAKKLGTL ? mid bin

Then what about the sequence HMSTSFQVQVSVLDLRIRKEPTVKGQEVGKISKGIHTITETRSADGYTWGKLESGQGWIALEFTTKLD ? mid bin

====

assay: soluble fraction after stress (log2 fold change); higher = more stays soluble; pooled small domains, quantitative proteomics; conditions: stress: 50 degC
Please respond with reported soluble fraction (log2) for every item in the list.
One number for each entry.

# sequence, assayEndpoint, value
data = [
    ("HMEVLPLHQVKLKYAEADTILIALKSAQSMLSPRGQLLADNRSQQIFVYDDEAHTATLIEAIKHLDQPL", "soluble fraction (log2)", -0.0429),
    ("HMNPYQDSILLWKSFDTPLTNEDFMGLSKEELRIARNEIYAAYGRIFTSQDLIDYFNSKPWYQGTTPA", "soluble fraction (log2)", -0.202),
    ("HMTESIKRDEAIRLNNGRIYTLDAAKIGTNEYEVMLFNPRTGEEIDSAKTSTEADAILQFDRLRRMYHR", "soluble fraction (log2)", 0.1),
    ("HMLESVMHSRIAEIISREGTAPAHMSMQEKIRVVHKLDADGILMMKGAVAEIADQLSVSVPTIYRYLNKPQ", "soluble fraction (log2)", -1.8),
    ("HMIENITIELNKKALALDFELNKDLPEGVLETIPTLVSLMVRFDPLTVSYHFLRDYIDALLESNLNVDL", "soluble fraction (log2)", -0.0273),
    ("HMPRPLVAPMPGLIVRVTAVVGDSVDAGQGLVVMEAMKMENELRTTTAGVVKTVHVQPGVAVEKGALLIEF", "soluble fraction (log2)", -0.893),
    ("HMFPDLSPEQQRIVDVLTKSNDLQLNQLSVKTGIPIGDITSILFQMEMMGVVKPMAGGNYHLL", "soluble fraction (log2)", -1.36),
    ("HMEYTTEELDSLLKLYFQTHESINRNEFEQLTSYTRTTASRRLKTLVQAGKLQNIGLYRFPVYKPTEGNF", "soluble fraction (log2)", -2.49),
]

Here are 5 sequences. What values of soluble fraction (log2) were reported for them?
1. HMGKELTVPDVVGQNYVSAQEKLIAGGFQVEVADSVYDSRYGRGVVVDQNPHKDTRVKPGRLIYVTVNA
2. HMSAVVAPLPGLIQNILVKVGDTVHAGQHVLTMEAMKMENEIQTNRDGIIKDIKVRIGDSVNEGDTLIIL
3. HMQASISVDEAKSIALNYAKFTADQVVYTKSELDYDDGRAEYEIEFYAGGKEYSFTIDAVSGTVLEMEI
4. HMLSEKELLELLNRAKSNYNGITKKGIEAIALKYQGYSNVEIANLYHVKANHISAWISRARSRLKADY
5. HMARGRETILLVEDEPAVRGLVHATLRLHGYTVLEARHGIEALLTSTKFVGPIHLLLTDVVMPQMS

1. -0.0999
2. -0.0224
3. -1.7
4. 0.193
5. 0.182

Here are 2 sequences. What values of soluble fraction (log2) were reported for them?
1. HMKIVPEPGTVLIREYQEERHEVTVTLDGAFDYKGTLYSSLSEIARLITGTRWSGPVFFGLRS
2. HMEDDIRSSIRTLDQFISKNQITLSKDVKNYILQLLSNDRMVTINELEKIKIYYDSNENIDLDTVKILLN

1. -0.4
2. -0.754

Here are 2 sequences. What values of soluble fraction (log2) were reported for them?
1. HMPLEKGVVILDVTPSSAKVAVDGTSVETTYPLRLSAGLHQLSAEADGYDSITEYFKVETEKTTVTLDLSK
2. HMNLGNLAYESKVTKQVLNMIRPLHPEYSSDDITRAVKEILSEEGSRQRRVDEIARGALDVLMGNPR

[0.105, 0.216]
